These entries and their values trace back to paper PMC9067284.

# target desc: PDK3 (Homo sapiens, UniProt Q15120)
# Sequence (Q15120 whole entry): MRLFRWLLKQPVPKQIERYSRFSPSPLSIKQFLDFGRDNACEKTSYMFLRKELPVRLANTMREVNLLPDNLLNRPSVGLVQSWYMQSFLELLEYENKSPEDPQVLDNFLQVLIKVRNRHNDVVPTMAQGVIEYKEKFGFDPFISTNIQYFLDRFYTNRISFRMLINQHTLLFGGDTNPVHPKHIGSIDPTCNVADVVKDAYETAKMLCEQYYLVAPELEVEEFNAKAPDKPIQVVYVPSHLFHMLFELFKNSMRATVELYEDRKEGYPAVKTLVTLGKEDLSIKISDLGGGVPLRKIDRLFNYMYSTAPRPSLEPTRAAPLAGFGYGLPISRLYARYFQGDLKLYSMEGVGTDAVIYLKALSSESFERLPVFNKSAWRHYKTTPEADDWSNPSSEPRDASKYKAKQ
# assay remarks: Isothermal titration calorimetry of PDK3 with EA
# Type: binding
# particulars: Ka1 (association constant), ITC, 25 °C, four-site model, site 1
recorded metric: pKd
Remember the convention: pKd equals -log10 of concentration in molar.

Q. Which measured pKd value corresponds to O=c1oc2c(O)c(O)cc3c(=O)oc4c(O)c(O)cc1c4c23 [Ellagic acid] ?
A. 3.98

* * *

# target desc: PDK3 (Homo sapiens, UniProt Q15120)
# assay remarks: Isothermal titration calorimetry of PDK3 with EA
# Type: binding
# particulars: Ka2 (association constant), ITC, 25 °C, four-site model, site 2
recorded metric: Kd (µM)
Numeric answer only, unit µM assumed.

Q. Which measured Kd value corresponds to "O=c1oc2c(O)c(O)cc3c(=O)oc4c(O)c(O)cc1c4c23" ?
A. 8.47
